So I've got a bunch of sequences here, and I need their apparent KD of K4 kissing-loop reporter values.
System: K4 kissing-loop RNA reporter;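 also: bound reporter read as fluorescence of individual clusters on recovered sequencing chips by microscopy, with normalized cluster intensities fitted with a binding model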
Experiment: apparent KD of K4 kissing-loop reporter; higher = weaker reporter binding
Settings: Eterna round: R107; input ligand: none

A selection of reference data follows.
SEQUENCE_CODE	EXPERIMENTAL_TARGET	apparent KD of K4 kissing-loop reporter
CACGGUUAUACGGCCGCCACUGAUUGCGUUGCAGUGAUGUUGCACGCGUCCGACUACACCUCAUUCAGGACCGGGUAGACAUGCA [theeternabot_exclusion_KL_Trp_B_11]	K4 kissing-loop RNA reporter	230 nM
CGCAAUCGAACUGAUACCAGUCAUAAUGGCUGAGAAGCACGAGUGAUGUUCGUAACGAAUGACCCUUGGCAGCAGUUCGAUUGCG [Theo B SS t8]	K4 kissing-loop RNA reporter	944 nM
AACCGCCAGUCGGCCGCCACUCACAGCAGUGAUGUUGCUGAAAAUCUAAAAGAGUGAUGUUCUUAGAGGACCGGGACUCCAGGCG [Same State Tryptophan B GF 5]	K4 kissing-loop RNA reporter	218 nM
GCCGUAGAUUGAAGGAGCGGCAUUAACGAUGUUCUGGUAGUGAUGUUACCUCAGCAGACAUGCCAGGUAGGUCGCAAUCUACGGC	K4 kissing-loop RNA reporter	93.6 nM
CUGGGUUGACGAAAAGUCAACAAAAGAGAAGGAGCGCACGAAAGUGCAGGUAGGUCGCUCAAUCCAGUGAUGUUGGGUCAUCCAG [#SwitchBubble 14 #K4Late]	K4 kissing-loop RNA reporter	800 nM

Bench note: what apparent KD of K4 kissing-loop reporter did UGUCAUUGGUCGGCCGCCACUUCAUAAAGAGUGAUGUUCUGAAAGACGGAUCGAAAGAUCUGUCGAAGGACCGGGACCGAUGACU [FiskerMod 1 - Jieux - Same State - Tryptophan B] show?
2080 nM
